// values below are reported IC50
system: Vero Cell; experiment: Vero cell cytotoxicity (IC50); assay type: cell-based; details: Chlorocebus sabaeus, Vero, African green monkey kidney cells

Sample records with IC50:
compound: COc1cccc(C(c2cc(-c3ccc(Cl)cc3)cnc2OC)C(O)(CCN(C)C)c2cc(Cl)cc(Cl)c2)c1OC (single isomer, unassigned)
IC50: > 32 µg/mL

compound: COc1ncc(-c2cccnc2)cc1C(c1ccccc1)C(O)(CCN(C)C)c1cccc2ccccc12 (stereo not shown)
IC50: > 50 µg/mL

Exam item: Form field: reported IC50 of COc1ncc(-c2ccccc2)cc1C(c1ccccc1)C(O)(CCN(C)C)c1cc(F)ccc1F (stereo not shown)
Marked response: > 50 µg/mL

Exam item: Form field: reported IC50 of COc1ncc(-c2ccco2)cc1C(c1ccccc1)C(O)(CCN(C)C)c1cccc2ccccc12 (stereo not shown)
Marked response: 24.5 µg/mL

* * *

assay: Hela cell cytotoxicity (CC50); details: human, HeLa cells (human cervical cancer cells), CC50_Hela, half of the toxic concentration
assay endpoint: CC50

Sample records with CC50:
molecule: COc1ncc(C2CCSCC2)cc1C(c1ccccc1)C(O)(CCN(C)C)c1cccc2ccccc12 (stereo not shown) [Compound 255]
assay endpoint: CC50
measured: > 64 µg/mL
//
molecule: COc1ncc(-c2ccc(C#N)cc2)cc1C(c1ccccc1)C(O)(CCN(C)C)c1cccc2ccccc12 (stereo not shown) [Compound 157]
assay endpoint: CC50
measured: > 64 µg/mL
//
molecule: COc1ncc(-c2ccc(Cl)cc2)cc1C(c1ccccc1)C(O)(CCN(C)C)c1cccc(Br)c1 (single isomer, unassigned) [Compound 388]
assay endpoint: CC50
measured: 26.2 µg/mL

Here is the next item to consider.
Exam item: Form field: reported CC50 of COc1ncc(-c2ccc(Cl)cc2)cc1C(c1ccc(Cl)cc1)C(O)(CCN(C)C)c1cccc2ccccc12 (stereo not shown) [Compound 329]
Marked response: > 64 µg/mL

* * *

// values below are reported CC50
assay: Hela cell cytotoxicity (CC50); details: human, HeLa cells (human cervical cancer cells), CC50_Hela, half of the toxic concentration

compound: COc1ncc(-c2ccc(Cl)cc2)cc1C(c1ccccc1)C(O)(CCN(C)C)c1cccc(F)c1F (stereo not drawn)
assay endpoint: CC50
measured: > 64 µg/mL

compound: COc1ncc(-c2ccc(OC(F)(F)F)cc2)cc1C(c1ccccc1)C(O)(CCN(C)C)c1cccc2ccccc12 (stereo not drawn)
assay endpoint: CC50
measured: > 64 µg/mL

compound: COc1ncc(C#Cc2ccccc2)cc1C(c1ccccc1)C(O)(CCN(C)C)c1cccc2ccccc12 (stereo not drawn)
assay endpoint: CC50
measured: > 64 µg/mL

compound: COc1ncc(-c2ccc(Br)cc2)cc1C(c1ccccc1)C(O)(CCN(C)C)c1cccc(Cl)c1 (stereo not drawn)
assay endpoint: CC50
measured: 53.2 µg/mL

compound: COc1ncc(-c2ccc(Cl)cc2)cc1C(c1ccccc1)C(O)(CCN(C)C)c1cc(F)cc(F)c1 (stereo not drawn)
assay endpoint: CC50
measured: 35 µg/mL

Here is the next item to consider.
Exam item: Form field: reported CC50 of COc1cccc(C(c2cc(-c3ccccc3)cnc2OC)C(O)(CCN(C)C)c2cc(Cl)cc(Cl)c2)c1OC (stereo not drawn)
Marked response: > 64 µg/mL

* * *

system: Vero Cell; assay: Vero cell cytotoxicity (IC50); type: cell-based; conditions: Chlorocebus sabaeus, Vero, African green monkey kidney cells
assay endpoint: IC50

Sample records with IC50:
molecule: COc1ncc(-c2ccccc2)cc1C(c1ccccc1)C(O)(CCN(C)C)c1cccc(F)c1F (stereo not shown)
IC50: > 50 µg/mL
--
molecule: COc1ncc(-c2ccccc2F)cc1C(c1ccccc1)C(O)(CCN(C)C)c1cccc2ccccc12 (stereo not shown)
IC50: > 50 µg/mL
--
molecule: COc1ncc(-c2ccc(C(F)(F)F)cc2)cc1C(c1ccccc1)C(O)(CCN(C)C)c1cccc2ccccc12 (stereo not shown)
IC50: > 32 µg/mL

Exam item: Form field: reported IC50 of COc1ncc(C2CCOCC2)cc1C(c1ccccc1)C(O)(CCN(C)C)c1cccc2ccccc12 (stereo not shown)
Marked response: > 50 µg/mL

Exam item: Form field: reported IC50 of COc1ncc(-c2ccc(Cl)cc2)cc1C(c1ccccc1)C(O)(CCN(C)C)c1cccc(F)c1 (stereo not shown)
Marked response: > 32 µg/mL

Reference source: patent US9878982B2
